Target: T1, human TL1A (human, UniProt O95150 72-251)
T1 construct: Antigen in SPR and ELISA; Also used here for places that print only 'TL1A' and for endogenous TL1A in human whole blood; also called TNFSF15
T1 sequence (looked up): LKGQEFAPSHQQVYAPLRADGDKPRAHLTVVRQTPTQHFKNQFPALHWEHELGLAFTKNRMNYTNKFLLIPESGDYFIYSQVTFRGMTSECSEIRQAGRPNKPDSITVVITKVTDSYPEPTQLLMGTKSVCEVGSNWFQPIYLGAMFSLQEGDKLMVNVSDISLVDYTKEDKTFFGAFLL
Test: SPR, Fab lysate, average
test-readout: Kd (pM)
Express it in pM; write the number only.

Reference set, count: 5
binder: Antibody 19 (Fab format) (Fab, V domains shown, High priority lead, Fab format) VH: QVQLQESGPGLVRPSQTLSLTCTVSGFDITDTYMHWVRQRPGRGLEWMGRIEPAGGHTKYNPSLKSRVTITRDTSKNQVSLRLSSVTAADTAVYYCVRSGGLPDVWGQGSLVTVSS VL: DIQMTQSPSSLSASVGDRVTITCRASQGVEYMYWYQQKPGKAPKLLIYYASNLASGVPSRFSGSGSGTDFTFTISSLQPEDIATYYCQQWEGNPRTFGQGTKVEIK
test-readout: Kd
experimental-value: 720

binder: Antibody 15 (Fab format) (Fab, V domains shown, High priority lead, Fab format) VH: QVQLQESGPGLVRPSQTLSLTCTVSGFDIQDTYMHWVRQRPGRGLEWMGRIEPAGGHTKYNPSLKSRVTITRDTSKNQVSLRLSSVTAADTAVYYCVRSGGLPDAWGQGSLVTVSS VL: DIQMTQSPSSLSASVGDRVTITCRASQGIYYMYWYQQKPGKAPKLLIYGASNLASGVPSRFSGSGSGTDFTFTISSLQPEDIATYYCQQWEGNPRTFGQGTKVEIK
test-readout: Kd
experimental-value: 500

binder: Antibody 1 (Fab format) (Fab, V domains shown, High priority lead, Fab format; also called Lead #1) VH: QVQLQESGPGLVRPSQTLSLTCTVSGFDIQDTYMHWVRQRPGRGLEWMGRIEPAGGHTKYNPSLKSRVTITRDTSKNQVSLRLSSVTAADTAVYYCASSGGMPDLWGQGSLVTVSS VL: DIQMTQSPSSLSASVGDRVTITCRASQGVEYMYWYQQKPGKAPKLLIYGASNLASGVPSRFSGSGSGTDFTFTISSLQPEDIATYYCQQWEGNPRTFGQGTKVEIK
test-readout: Kd
experimental-value: 170

binder: Antibody 12 (Fab format) (Fab, V domains shown, High priority lead, Fab format) VH: QVQLQESGPGLVRPSQTLSLTCTVSGFDITDTYMHWVRQRPGRGLEWMGRIEPAGGHTKYNPSLKSRVTITRDTSKNQVSLRLSSVTAADTAVYYCVRSGGLPDVWGQGSLVTVSS VL: DIQMTQSPSSLSASVGDRVTITCRASQGVEYMYWYQQKPGKAPKLLIYSASNLASGVPSRFSGSGSGTDFTFTISSLQPEDIATYYCQQWEGNPRTFGQGTKVEIK
test-readout: Kd
experimental-value: 430

binder: Antibody 10 (Fab format) (Fab, V domains shown, High priority lead, Fab format) VH: QVQLQESGPGLVRPSQTLSLTCTVSGLDPDDTYMHWVRQRPGRGLEWMGRIEPAGGHTKYNPSLKSRVTITRDTSKNQVSLRLSSVTAADTAVYYCVISGGLPDVWGQGSLVTVSS VL: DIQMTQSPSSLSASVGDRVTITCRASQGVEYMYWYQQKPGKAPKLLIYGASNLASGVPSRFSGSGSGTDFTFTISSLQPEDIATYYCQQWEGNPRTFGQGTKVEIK
test-readout: Kd
experimental-value: 480

# binder Antibody 7 (Fab format) (Fab, V domains shown, High priority lead, Fab format) VH: QVQLQESGPGLVRPSQTLSLTCTVSGFDMGDTYMHWVRQRPGRGLEWMGRIEPAAGHTKYNPSLKSRVTITRDTSKNQVSLRLSSVTAADTAVYYCVRSGGLPDIWGQGSLVTVSS VL: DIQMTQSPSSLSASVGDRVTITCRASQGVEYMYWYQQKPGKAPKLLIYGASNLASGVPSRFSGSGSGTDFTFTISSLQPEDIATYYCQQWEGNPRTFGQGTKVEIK ; its Kd = 430

# binder Antibody 14 (Fab format) (Fab, V domains shown, High priority lead, Fab format) VH: QVQLQESGPGLVRPSQTLSLTCTVSGLDPDDTYMHWVRQRPGRGLEWMGRIEPAGGHTKYNPSLKSRVTITRDTSKNQVSLRLSSVTAADTAVYYCVISGGLPDVWGQGSLVTVSS VL: DIQMTQSPSSLSASVGDRVTITCRASQGIYYMYWYQQKPGKAPKLLIYGASNLASGVPSRFSGSGSGTDFTFTISSLQPEDIATYYCQQWEGNPRTFGQGTKVEIK ; its Kd = 700

# binder Antibody 2 (Fab format) (Fab, V domains shown, High priority lead, Fab format) VH: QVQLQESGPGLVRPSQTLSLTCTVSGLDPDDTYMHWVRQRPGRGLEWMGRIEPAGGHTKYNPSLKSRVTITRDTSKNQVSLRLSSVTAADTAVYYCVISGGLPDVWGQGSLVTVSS VL: DIQMTQSPSSLSASVGDRVTITCRASSSVSYMYWYQQKPGKAPKLLIYATSNLASGVPSRFSGSGSGTDFTFTISSLQPEDIATYYCQQWEGNPRTFGQGTKVEIK ; its Kd = 200

# binder Antibody 13 (Fab format) (Fab, V domains shown, High priority lead, Fab format) VH: QVQLQESGPGLVRPSQTLSLTCTVSGFDYQDTYMHWVRQRPGRGLEWMGRIDPASGHTKYNPSLKSRVTITRDTSKNQVSLRLSSVTAADTAVYYCAVSGGMPDVWGQGSLVTVSS VL: DIQMTQSPSSLSASVGDRVTITCRASQGVEYMYWYQQKPGKAPKLLIYATSNLASGVPSRFSGSGSGTDFTFTISSLQPEDIATYYCQQWEGNPRTFGQGTKVEIK ; its Kd = 430
